Test: Pharmacokinetics assay in mice
Assay type: in vivo
Conditions: mouse, po; C57 mice (female), intragastric, 2 mg/kg, plasma; read-out: Plasma concentration Cmax
Experimental: Mice were used as test animals. The drug concentration in plasma at different time points was determined by LC/MS/MS method after intragastrical administration of the compounds of Examples 2, 3, 17, 18, 19, 20, 31 and 44 to mice. The pharmacokinetic behavior of the compounds of the present invention was studied and evaluated in mice. […]
Listed here: items and their measured Cmax.
Unit ng/mL implied. Number only.

# annotated cases, reported Cmax shown
>>> measvalue("Cc1ncnc2ccc(-c3nnc(N)nc3-c3ccc(F)cc3)cc12")
1960
>>> measvalue("Cc1ccnc2ccc(-c3nnc(N)nc3-c3ccc(F)cc3)cc12")
402
>>> measvalue("Cc1ccnc2c(F)cc(-c3nnc(N)nc3-c3ccc(F)cc3)cc12")
866

## Input // returns reported Cmax for input "Cc1ccnc2c(F)cc(-c3nnc(N)nc3-c3ccccc3F)cc12"
## Output 302

## Input Would you mind telling me what Cmax value was observed for "Nc1nnc(-c2ccc3ncccc3c2)c(-c2ccccc2)n1" ?
## Output 395
